test: Pharmacokinetic assay in mice; assay type: in vivo; settings: male, mouse; ICR mice, PO 10 mg/kg, plasma
Note to self: values exactly at 2 h are satisfied. So MRT at or above 2 h is satisfied, below is not satisfied.

- compound: "CC(C)N1CCc2cc(C(=O)Nc3cccc(-c4cccc(NC(=O)c5nc6c(n5C)CCN(CCC57CCC(C(=O)O)(CC5)CC7)C6)c4Cl)c3Cl)ncc2C1 [Example 58]"
  qualitative_label: "satisfied"
- compound: "CN1CCc2cc(C(=O)Nc3cccc(-c4cccc(NC(=O)c5nc6c(n5C)CCN(CCC57CCC(C(=O)O)(CC5)C7)C6)c4Cl)c3Cl)ncc2C1 [Example 2]"
  qualitative_label: "not satisfied"
- compound: "CC(C)N1CCc2cc(C(=O)Nc3cccc(-c4cccc(NC(=O)c5nc6c(n5C)CCN(CCC57C8C9C5C5C7C8C95C(=O)O)C6)c4Cl)c3Cl)ncc2C1 (stereo not drawn) [Example 59]"
  qualitative_label: "satisfied"
- compound: "CC(C)N1CCc2cc(C(=O)Nc3cccc(-c4cccc(NC(=O)c5cc(C6CC6)c(CN6CCCC[C@H]6C(=O)O)cn5)c4Cl)c3Cl)ncc2C1 [Example 32]"
  qualitative_label: "satisfied"

Let us examine a further case.
Inquiry: For this compound, is measured MRT 2 h or higher? CC(C)N1CCc2cc(C(=O)Nc3cccc(-c4cccc(NC(=O)c5nc6c(n5C)CCN(CCC57CCC(C(=O)O)(CC5)C7)C6)c4Cl)c3Cl)ncc2C1 [Example 1]
Reply text: satisfied

---

test: Pharmacokinetic assay in mice; type: in vivo; settings: male, mouse; ICR mice, PO 10 mg/kg, plasma
# note: boundary value 10000 ng·h/mL maps to Condition not met; AUC(0-t) below it maps to Condition met

Look over these answered cases.
- compound: "CC(C)N1CCc2cc(C(=O)Nc3cccc(-c4cccc(NC(=O)c5nc6c(n5C)CCN(CCC57CCC(C(=O)O)(CC5)CC7)C6)c4Cl)c3Cl)ncc2C1"
  qualitative_label: "Condition not met"
- compound: "CC(C)N1CCc2cc(C(=O)Nc3cccc(-c4cccc(NC(=O)c5nc6c(n5C)CCN(CCC57CCC(C(=O)O)(CC5)C7)C6)c4Cl)c3Cl)ncc2C1"
  qualitative_label: "Condition not met"
- compound: "CC(C)N1CCc2cc(C(=O)Nc3cccc(-c4cccc(NC(=O)c5nc6c(n5C)CCN(CCC57CC(C(=O)O)(C5)C7)C6)c4Cl)c3Cl)ncc2C1"
  qualitative_label: "Condition met"
- compound: "CC(C)N1CCc2cc(C(=O)Nc3cccc(-c4cccc(NC(=O)c5nc6c(n5C)CCN(CCC57C8C9C5C5C7C8C95C(=O)O)C6)c4Cl)c3Cl)ncc2C1 (stereo not drawn)"
  qualitative_label: "Condition met"

Let us examine a further case.
Inquiry: Report whether reported AUC(0-t) is lower than 10000 ng·h/mL (strictly) for CN1CCc2cc(C(=O)Nc3cccc(-c4cccc(NC(=O)c5nc6c(n5C)CCN(CCC57CCC(C(=O)O)(CC5)C7)C6)c4Cl)c3Cl)ncc2C1
Reply text: Condition met

---

assay: Pharmacokinetic assay in mice; format: in vivo; conditions: male, mouse; ICR mice, PO 10 mg/kg, plasma
Note to self: values exactly at 2 h are 1.0. So half-life at or above 2 h is 1.0, below is 0.0.

Look over these answered cases.
- compound: "CC(C)N1CCc2cc(C(=O)Nc3cccc(-c4cccc(NC(=O)c5nc6c(n5C)CCN(CCC57CCC(C(=O)O)(CC5)C7)C6)c4Cl)c3Cl)ncc2C1"
  qualitative_label: 1.0
- compound: "CN1CCc2cc(C(=O)Nc3cccc(-c4cccc(NC(=O)c5nc6c(n5C)CCN(CCC57CCC(C(=O)O)(CC5)C7)C6)c4Cl)c3Cl)ncc2C1"
  qualitative_label: 1.0
- compound: "CC(C)N1CCc2cc(C(=O)Nc3cccc(-c4cccc(NC(=O)c5cc(C6CC6)c(CN6CCCC[C@H]6C(=O)O)cn5)c4Cl)c3Cl)ncc2C1"
  qualitative_label: 0.0
- compound: "CC(C)N1CCc2cc(C(=O)Nc3cccc(-c4cccc(NC(=O)c5nc6c(n5C)CCN(CCC57C8C9C5C5C7C8C95C(=O)O)C6)c4Cl)c3Cl)ncc2C1 (stereo not drawn)"
  qualitative_label: 0.0
- compound: "CC(C)N1CCc2cc(C(=O)Nc3cccc(-c4cccc(NC(=O)c5nc6c(n5C)CCN(CCC57CC(C(=O)O)(C5)C7)C6)c4Cl)c3Cl)ncc2C1"
  qualitative_label: 0.0

Let us examine a further case.
Inquiry: For this compound, is measured half-life 2 h or higher? CC(C)N1CCc2cc(C(=O)Nc3cccc(-c4cccc(NC(=O)c5nc6c(n5C)CCN(CCC57CCC(C(=O)O)(CC5)CC7)C6)c4Cl)c3Cl)ncc2C1
Reply text: 1.0

---

assay: Pharmacokinetic assay in mice; format: in vivo; details: male, mouse; ICR mice, PO 10 mg/kg, plasma
reported_property: Cmax

Below, each entry is followed by its recorded Cmax result.
- compound: "CC(C)N1CCc2cc(C(=O)Nc3cccc(-c4cccc(NC(=O)c5nc6c(n5C)CCN(CCC57C8C9C5C5C7C8C95C(=O)O)C6)c4Cl)c3Cl)ncc2C1 (stereo not drawn) [Example 59]"
  Cmax: "616 ng/mL"
- compound: "CN1CCc2cc(C(=O)Nc3cccc(-c4cccc(NC(=O)c5nc6c(n5C)CCN(CCC57CCC(C(=O)O)(CC5)C7)C6)c4Cl)c3Cl)ncc2C1 [Example 2]"
  Cmax: "2320 ng/mL"
- compound: "CC(C)N1CCc2cc(C(=O)Nc3cccc(-c4cccc(NC(=O)c5nc6c(n5C)CCN(CCC57CCC(C(=O)O)(CC5)CC7)C6)c4Cl)c3Cl)ncc2C1 [Example 58]"
  Cmax: "1630 ng/mL"

Inquiry: Looking for the measured Cmax of CC(C)N1CCc2cc(C(=O)Nc3cccc(-c4cccc(NC(=O)c5cc(C6CC6)c(CN6CCCC[C@H]6C(=O)O)cn5)c4Cl)c3Cl)ncc2C1 [Example 32] , can you help?
Reply text: 2570 ng/mL

Inquiry: Looking for the measured Cmax of CC(C)N1CCc2cc(C(=O)Nc3cccc(-c4cccc(NC(=O)c5nc6c(n5C)CCN(CCC57CCC(C(=O)O)(CC5)C7)C6)c4Cl)c3Cl)ncc2C1 [Example 1] , can you help?
Reply text: 2850 ng/mL

Inquiry: Looking for the measured Cmax of CC(C)N1CCc2cc(C(=O)Nc3cccc(-c4cccc(NC(=O)c5nc6c(n5C)CCN(CCC57CC(C(=O)O)(C5)C7)C6)c4Cl)c3Cl)ncc2C1 [Example 60] , can you help?
Reply text: 2420 ng/mL

The reported numbers originate from patent US12552811B2.
